Where these numbers come from: ChEMBL document CHEMBL1201862

Tested on: KM12
protocol_description: NCI tumour cell line growth inhibition, 48 h
Activity calls are given as the source filed them. Rule as the data show it: active = GI50 up to about 1.1 µM and inactive = higher.
This listing pairs molecules with measured GI50.

Worked examples follow.
# molecule, GI50
records = [
    ("COc1ccc(NN=C2C(=O)CCC2=O)cc1", "> 100 µM (inactive)"),
    ("CC(=O)OC1CC[C@@]2(C)C(=CC[C@@H]3[C@@H]2CC[C@]2(C)Nc4nn(S(C)(=O)=O)cc4C[C@@H]32)C1 (stereo partly drawn)", "31.8 µM (inactive)"),
    ("C/C(=N\\N=C(N)N)c1sc(-c2nc(C)c(/C(C)=N/N=C(N)N)s2)nc1C", "> 36.2 µM (inactive)"),
    ("C[C@@H]1OC(=O)C[C@H]2CC(=O)N(CCC3CN(S(=O)(=O)C(F)(F)F)c4ccccc43)C[C@@H]21 (stereo partly drawn)", "> 100 µM (inactive)"),
    ("C=C1C(=O)OC2/C=C(\\C)C3OC3/C=C(/C(=O)OC)C(OC(C)=O)C(OC(=O)C(C)(O)C(C)OC(C)=O)C12 (stereo not drawn)", "2.49 µM (inactive)"),
    ("O=C(c1cc(Cl)cc(Cl)c1)N(Cc1cccnc1)C(=S)N(Cc1cccnc1)C(=O)c1cc(Cl)cc(Cl)c1", "24.5 µM (inactive)"),
    ("COc1cc2c3c(c1OC)Oc1ccc(cc1)CC1c4c(cc(OC)c(OC)c4Oc4ccc(cc4)CC3N(C)CC2)CCN1C (stereo not drawn)", "34.4 µM (inactive)"),
]

Proceed to the following item.
Given item CC(C)(C)c1cc(C(C)(C)C)c2sc(=S)oc2c1O , the value recorded as its GI50 is 4.79 µM (inactive)

====

Tested on: UACC-62
protocol_description: NCI tumour cell line growth inhibition, 48 h
Active and inactive are the calls of the source. No stated cut-off is given here; in the data, active = GI50 up to about 1.1 µM and inactive = higher.
Could you please pick one outcome from this set? active, inactive

# molecule, label
records = [
    ("Cc1cc(C)c2c(n1)S(=O)(=O)N(CCCN1CCN(c3cccc(C(F)(F)F)c3)CC1)c1c-2nn(C)c1C", "inactive"),
    ("C/C(=N\\Nc1nc2ccccc2o1)c1ncccn1", "active"),
    ("NS(=O)(=O)c1ccc(Nc2c3ccccc3nc3c(C(=O)N4CCN(CCO)CC4)cccc23)cc1", "inactive"),
    ("NNC(=O)CNc1cccc(Br)c1", "inactive"),
    ("COc1ccc(Cn2c3c(cc(OS(=O)(=O)C(F)(F)F)c2=O)Cc2ccccc2-3)cc1", "inactive"),
]

Please let me know the test result on file for Cc1ccc(S(=O)(=O)N2CCCSCCN(S(=O)(=O)c3ccc(C)cc3)CCCSCC2)cc1 .
inactive

====

System: SR
protocol_description: NCI tumour cell line growth inhibition, 48 h
Active and inactive are the calls of the source. No stated cut-off is given here; in the data, active = GI50 up to about 1.1 µM and inactive = higher.
This listing pairs compounds with measured GI50.

# compound, measurement_label, result
measured = [
    ("CC(=O)OCC1OC(N2C(=O)/C(=C\\c3ccc(Cl)cc3)C(N)=Nc3ccccc32)C(OC(C)=O)C(OC(C)=O)C1OC(C)=O (stereo unspecified)", "GI50", "16.4 µM (inactive)"),
    ("C/C(=N\\N=C(/S)N(C)C)c1cccc[n+]1[O-]", "GI50", "1.23 µM (inactive)"),
    ("O=C1/C(=C/c2ccc(Cl)cc2)CCC/C1=C\\c1ccc(O)c(CN2CCCCC2)c1", "GI50", "3.78 µM (inactive)"),
    ("N/C(=N/c1ccc(O)cc1)S(=O)O", "GI50", "> 100 µM (inactive)"),
    ("C=C(CCC/C(C)=C/C=C/[C@H](C)CCCc1ccoc1)C[C@@H]1OC(=O)[C@H](C)[C@@H]1O", "GI50", "11.8 µM (inactive)"),
]

Given item CCP(=S)(CC)CCl , the value recorded as its GI50 is > 100 µM (inactive)
